Experiment: Non-competitive inhibition of baker's yeast alpha-glucosidase using varying levels of phenol-alphaD-glycopyranoside as substrate preincubated for 10 mins followed by substrate addition and measured after 30 mins by double reciprocal plot analysis
Parameters: species or system Saccharomyces cerevisiae
pKi: −log10 of the molar value.
measuredMetric: pKi

Examples with their reported pKi follow.
CC1(C)CC[C@@]23CC[C@]4(C)[C@](OC2=O)([C@H](F)C[C@@H]2[C@@]5(C)C/C(=C\c6ccc(Cl)cc6)C(=O)C(C)(C)[C@@H]5CC[C@]24C)[C@@H]3C1 :: 6.06
CC1(C)CC[C@@]23CC[C@]4(C)[C@](OC2=O)([C@H](F)C[C@@H]2[C@@]5(C)C/C(=C\c6cccc(Cl)c6)C(=O)C(C)(C)[C@@H]5CC[C@]24C)[C@@H]3C1 :: 5.83

[P] CC1(C)CC[C@@]23CC[C@]4(C)[C@](OC2=O)([C@H](F)C[C@@H]2[C@@]5(C)C/C(=C\c6ccc(Cl)cn6)C(=O)C(C)(C)[C@@H]5CC[C@]24C)[C@@H]3C1
[Q] COc1ccc(/C=C2\C[C@]3(C)[C@H]4C[C@@H](F)[C@]56OC(=O)[C@@]7(CCC(C)(C)C[C@H]75)CC[C@@]6(C)[C@]4(C)CC[C@H]3C(C)(C)C2=O)cc1
Identify the entry with the smaller pKi: P or Q . Respond with the label that goes with your answer.
P
(P: 5.92, Q: 6.28)

* * *

Experiment: Inhibition of baker's yeast alpha-glucosidase using phenol-alphaD-glycopyranoside as substrate preincubated for 10 mins followed by substrate addition and measured after 30 mins
Parameters: species or system Saccharomyces cerevisiae
measuredMetric: IC50 (nM)

Examples with their reported IC50 follow.
CC1(C)CC[C@@]23CC[C@]4(C)[C@](OC2=O)([C@H](F)C[C@@H]2[C@@]5(C)C/C(=C\c6ccc(Br)cc6)C(=O)C(C)(C)[C@@H]5CC[C@]24C)[C@@H]3C1 :: 1060
CC1(C)CC[C@@]23CC[C@]4(C)[C@](OC2=O)([C@H](F)C[C@@H]2[C@@]5(C)C/C(=C\c6ccccc6F)C(=O)C(C)(C)[C@@H]5CC[C@]24C)[C@@H]3C1 :: 1740
COc1cccc(/C=C2\C[C@]3(C)[C@H]4C[C@@H](F)[C@]56OC(=O)[C@@]7(CCC(C)(C)C[C@H]75)CC[C@@]6(C)[C@]4(C)CC[C@H]3C(C)(C)C2=O)c1 :: 3290
CC1(C)CC[C@@]23CC[C@]4(C)[C@](OC2=O)([C@H](F)C[C@@H]2[C@@]5(C)CC[C@H](O)C(C)(C)[C@@H]5CC[C@]24C)[C@@H]3C1 :: 8120
CC1(C)CC[C@]2(C(=O)O)CC[C@]3(C)C(=CC[C@@H]4[C@@]5(C)CC[C@H](O)C(C)(C)[C@@H]5CC[C@]43C)[C@@H]2C1 :: 2410

[a] CC1(C)CC[C@@]23CC[C@]4(C)[C@](OC2=O)([C@H](F)C[C@@H]2[C@@]5(C)C/C(=C\c6cnccn6)C(=O)C(C)(C)[C@@H]5CC[C@]24C)[C@@H]3C1
[b] Cc1ccccc1/C=C1\C[C@]2(C)[C@H]3C[C@@H](F)[C@]45OC(=O)[C@@]6(CCC(C)(C)C[C@H]64)CC[C@@]5(C)[C@]3(C)CC[C@H]2C(C)(C)C1=O
Which record would sort first by descending IC50, a or b ? Respond with the label that goes with your answer.
a
(a: 3140 nM, b: 1580 nM)

* * *

Assay: Inhibition of baker's yeast alpha-glucosidase using PNPG as substrate preincubated for 15 mins followed by substrate addition and measured after 5 mins by spectrophotometric method
Design: species or system Saccharomyces cerevisiae
measuredMetric: pIC50
Quick note: pIC50 values are minus log10 of concentrations in mol/L.

Short answer for CC1(C)CC[C@]2(C(=O)Oc3ccc(C(=O)/C=C/c4ccc(Br)cc4)cc3)CC[C@]3(C)C(=CC[C@@H]4[C@@]5(C)CCC(=O)C(C)(C)[C@@H]5CC[C@]43C)[C@@H]2C1 : pIC50 was 5.66

* * *

Test system: Mus musculus
Test: Hypoglycemic activity in streptozocin-induced diabetic Kunming mouse assessed as blood glucose level at 50 mg/kg, po administered once daily for 18 days measured on day 12 post dose (reference value: 23.27 +/- 1.03 mM)
Type: functional
measuredMetric: Activity (mM)
Numbers only; they are read as mM.

Examples with their reported Activity follow.
CC1(C)CC[C@@]23CC[C@]4(C)[C@](OC2=O)([C@H](F)C[C@@H]2[C@@]5(C)C/C(=C\c6ccc(Cl)cc6)C(=O)C(C)(C)[C@@H]5CC[C@]24C)[C@@H]3C1 :: 16.22
COc1ccc(/C=C2\C[C@]3(C)[C@H]4C[C@@H](F)[C@]56OC(=O)[C@@]7(CCC(C)(C)C[C@H]75)CC[C@@]6(C)[C@]4(C)CC[C@H]3C(C)(C)C2=O)cc1 :: 13.74
CC1(C)CC[C@@]23CC[C@]4(C)[C@](OC2=O)([C@H](F)C[C@@H]2[C@@]5(C)C/C(=C\c6ccc(Cl)cn6)C(=O)C(C)(C)[C@@H]5CC[C@]24C)[C@@H]3C1 :: 13.13
C[C@H]1O[C@H](O[C@H]2[C@H](O)[C@@H](O)[C@@H](O[C@H]3[C@H](O)[C@@H](O)C(O)O[C@@H]3CO)O[C@@H]2CO)[C@H](O)[C@@H](O)[C@@H]1N[C@H]1C=C(CO)[C@@H](O)[C@H](O)[C@H]1O (stereo not given in full) [ACARBOSE] :: 15.48

Consider the additional compound presented here.
// compound CC1(C)CC[C@@]23CC[C@]4(C)[C@](OC2=O)([C@H](F)C[C@@H]2[C@@]5(C)C/C(=C\c6cccc(Cl)c6)C(=O)C(C)(C)[C@@H]5CC[C@]24C)[C@@H]3C1 , assay Mus musculus, Activity value: 17.52

* * *

Assay: Inhibition of baker's yeast alpha-glucosidase using PNPG as substrate after 10 mins by spectrophotometric method
Parameters: species or system Saccharomyces cerevisiae
measuredMetric: IC50 (nM)
Numbers only; they are read as nM.

Short answer for CC1(C)CC[C@@]23CC[C@]4(C)[C@](OC2=O)([C@H](F)C[C@@H]2[C@@]5(C)C/C(=C\c6ccc(C(F)(F)F)cc6)C(=O)C(C)(C)[C@@H]5CC[C@]24C)[C@@H]3C1 : IC50 was 1900

* * *

Test system: Mus musculus
Assay: Hypoglycemic activity in streptozocin-induced diabetic Kunming mouse assessed as blood glucose level at 50 mg/kg, po administered once daily for 18 days measured on day 6 post dose (reference value: 22.31 +/- 1.05 mM)
Assay type: functional
measuredMetric: Activity (mM)
Numbers only; they are read as mM.

Examples with their reported Activity follow.
C[C@H]1O[C@H](O[C@H]2[C@H](O)[C@@H](O)[C@@H](O[C@H]3[C@H](O)[C@@H](O)C(O)O[C@@H]3CO)O[C@@H]2CO)[C@H](O)[C@@H](O)[C@@H]1N[C@H]1C=C(CO)[C@@H](O)[C@H](O)[C@H]1O (stereo not given in full) :: 22.44
CC1(C)CC[C@@]23CC[C@]4(C)[C@](OC2=O)([C@H](F)C[C@@H]2[C@@]5(C)C/C(=C\c6ccc(Cl)cn6)C(=O)C(C)(C)[C@@H]5CC[C@]24C)[C@@H]3C1 :: 20.51
COc1ccc(/C=C2\C[C@]3(C)[C@H]4C[C@@H](F)[C@]56OC(=O)[C@@]7(CCC(C)(C)C[C@H]75)CC[C@@]6(C)[C@]4(C)CC[C@H]3C(C)(C)C2=O)cc1 :: 19.96

// molecule CC1(C)CC[C@@]23CC[C@]4(C)[C@](OC2=O)([C@H](F)C[C@@H]2[C@@]5(C)C/C(=C\c6ccc(Cl)cc6)C(=O)C(C)(C)[C@@H]5CC[C@]24C)[C@@H]3C1 , assay Mus musculus, Activity value: 23.59

// molecule CC1(C)CC[C@@]23CC[C@]4(C)[C@](OC2=O)([C@H](F)C[C@@H]2[C@@]5(C)C/C(=C\c6cccc(Cl)c6)C(=O)C(C)(C)[C@@H]5CC[C@]24C)[C@@H]3C1 , assay Mus musculus, Activity value: 24.39

* * *

Assay: Inhibition of baker's yeast alpha-glucosidase using phenol-alphaD-glycopyranoside as substrate preincubated for 10 mins followed by substrate addition and measured after 30 mins
Design: species or system Saccharomyces cerevisiae
pIC50: −log10 of the molar value.
measuredMetric: pIC50

Examples with their reported pIC50 follow.
CC1(C)CC[C@@]23CC[C@]4(C)[C@](OC2=O)([C@H](F)C[C@@H]2[C@@]5(C)C/C(=C\c6ccc(Cl)cn6)C(=O)C(C)(C)[C@@H]5CC[C@]24C)[C@@H]3C1 :: 6.14
CC1(C)CC[C@@]23CC[C@]4(C)[C@](OC2=O)([C@H](F)C[C@@H]2[C@@]5(C)C/C(=C\c6ccc(-c7ccccn7)cc6)C(=O)C(C)(C)[C@@H]5CC[C@]24C)[C@@H]3C1 :: 5.44
CC1(C)CC[C@@]23CC[C@]4(C)[C@](OC2=O)([C@H](F)C[C@@H]2[C@@]5(C)C/C(=C\c6ccc(F)cc6)C(=O)C(C)(C)[C@@H]5CC[C@]24C)[C@@H]3C1 :: 5.82
Cc1cccc(/C=C2\C[C@]3(C)[C@H]4C[C@@H](F)[C@]56OC(=O)[C@@]7(CCC(C)(C)C[C@H]75)CC[C@@]6(C)[C@]4(C)CC[C@H]3C(C)(C)C2=O)c1 :: 5.67
CC1(C)CC[C@@]23CC[C@]4(C)[C@](OC2=O)([C@H](F)C[C@@H]2[C@@]5(C)C/C(=C\c6cccc(F)c6)C(=O)C(C)(C)[C@@H]5CC[C@]24C)[C@@H]3C1 :: 5.55

[I] Cc1ccc(/C=C2\C[C@]3(C)[C@H]4C[C@@H](F)[C@]56OC(=O)[C@@]7(CCC(C)(C)C[C@H]75)CC[C@@]6(C)[C@]4(C)CC[C@H]3C(C)(C)C2=O)cc1
[II] CC1(C)CC[C@@]23CC[C@]4(C)[C@](OC2=O)([C@H](F)C[C@@H]2[C@@]5(C)C/C(=C\c6ccccc6)C(=O)C(C)(C)[C@@H]5CC[C@]24C)[C@@H]3C1
Which record would sort first by descending pIC50, I or II ? Respond with the label that goes with your answer.
I

[P] CC1(C)CC[C@@]23CC[C@]4(C)[C@](OC2=O)([C@H](F)C[C@@H]2[C@@]5(C)C/C(=C\c6ccccc6Cl)C(=O)C(C)(C)[C@@H]5CC[C@]24C)[C@@H]3C1
[Q] C[C@H]1O[C@H](O[C@H]2[C@H](O)[C@@H](O)[C@@H](O[C@H]3[C@H](O)[C@@H](O)C(O)O[C@@H]3CO)O[C@@H]2CO)[C@H](O)[C@@H](O)[C@@H]1N[C@H]1C=C(CO)[C@@H](O)[C@H](O)[C@H]1O (stereo not given in full) [ACARBOSE]
Identify the entry with the smaller pIC50: P or Q . Respond with the label that goes with your answer.
Q
(Q: 3.24, P: 5.81)

Where do the numbers come from? From ChEMBL document CHEMBL4422652.
